- Assayed System: T1, Human CXCR2 (human, UniProt P25025 1-360)
- T1 sequence: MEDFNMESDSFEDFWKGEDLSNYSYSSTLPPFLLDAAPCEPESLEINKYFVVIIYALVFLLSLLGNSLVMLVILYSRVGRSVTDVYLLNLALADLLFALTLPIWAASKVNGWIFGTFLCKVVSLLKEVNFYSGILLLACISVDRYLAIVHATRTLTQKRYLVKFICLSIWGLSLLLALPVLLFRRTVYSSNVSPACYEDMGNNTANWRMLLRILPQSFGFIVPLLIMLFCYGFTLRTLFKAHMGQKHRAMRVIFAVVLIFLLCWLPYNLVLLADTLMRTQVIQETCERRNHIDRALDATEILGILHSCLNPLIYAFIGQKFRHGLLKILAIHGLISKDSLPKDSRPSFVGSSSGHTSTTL
- Assay Info: cell-based or functional assay

Binder: CXCR20035 (other, Biparatopic: two VHH joined by a GlySer linker; also called 54B12-35GS-163E3; 54B12-163E3; not shown: C-terminal c-myc tag and His6 tag coded by pAX100) EVQLVESGGGLVQAGGSLTLSCAVSGSTFRINTMGWYRRAPGKQRELVAARDRGGYINYVDSVKGRFTVSRDNAKPTMYLQMNSLKPEDTAVYYCHAGTQDRTGRNFDRWGQGTQVTVSSGGGGSGGGGSGGGGSGGGGSGGGGSGGGGSGGGGSEVQLVESGGGLVQPGGSLRLSCVASGRIFSSNAMGWFRQAPGKEREFVAAITWRSGGSAYYADSAKGRFTISRDNAKNTVYLQMNSLKPEDTAVYYCAAGGSSWLSFPPDYWGQGTQVTVSS
[35S]GTPγS IC50 (ENA-78), nM: 1.17

Binder: CXCR20021 (bispecific antibody, Biparatopic: two VHH joined by a GlySer linker; also called 127D1-35GS-163E3; 127D1-163E3; not shown: C-terminal c-myc tag and His6 tag coded by pAX100) EVQLVESGGGLVQAGESLRLSCAASGSTFDFKVMGWYRQPPGKQREGVAAIRLSGNMHYAESVKGRFTISKANAKNTVYLQMNSLRPEDTAVYYCKVNIRGQDYWGQGTQVTVSSGGGGSGGGGSGGGGSGGGGSGGGGSGGGGSGGGGSEVQLVESGGGLVQPGGSLRLSCVASGRIFSSNAMGWFRQAPGKEREFVAAITWRSGGSAYYADSAKGRFTISRDNAKNTVYLQMNSLKPEDTAVYYCAAGGSSWLSFPPDYWGQGTQVTVSS
[35S]GTPγS IC50 (ENA-78), nM: 0.787

Binder: CXCR20030 (other, Biparatopic: two VHH joined by a GlySer linker; also called 163D2-35GS-54B12; 163D2-54B12; not shown: C-terminal c-myc tag and His6 tag coded by pAX100) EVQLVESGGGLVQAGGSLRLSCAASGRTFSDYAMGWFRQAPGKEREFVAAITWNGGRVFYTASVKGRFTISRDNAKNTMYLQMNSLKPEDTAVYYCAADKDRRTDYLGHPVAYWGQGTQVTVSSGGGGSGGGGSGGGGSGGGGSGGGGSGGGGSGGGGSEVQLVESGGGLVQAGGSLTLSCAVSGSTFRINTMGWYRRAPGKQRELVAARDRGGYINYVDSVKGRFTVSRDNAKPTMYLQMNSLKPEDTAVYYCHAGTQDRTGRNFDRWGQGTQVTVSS
[35S]GTPγS IC50 (ENA-78), nM: 1.3

Binder: CXCR20020 (bispecific antibody, Biparatopic: two VHH joined by a GlySer linker; also called 127D1-35GS-163D2; 127D1-163D2; not shown: C-terminal c-myc tag and His6 tag coded by pAX100) EVQLVESGGGLVQAGESLRLSCAASGSTFDFKVMGWYRQPPGKQREGVAAIRLSGNMHYAESVKGRFTISKANAKNTVYLQMNSLRPEDTAVYYCKVNIRGQDYWGQGTQVTVSSGGGGSGGGGSGGGGSGGGGSGGGGSGGGGSGGGGSEVQLVESGGGLVQAGGSLRLSCAASGRTFSDYAMGWFRQAPGKEREFVAAITWNGGRVFYTASVKGRFTISRDNAKNTMYLQMNSLKPEDTAVYYCAADKDRRTDYLGHPVAYWGQGTQVTVSS
[35S]GTPγS IC50 (ENA-78), nM: 0.707

// provenance: patent US20130330346A1
